Target: BRD4 (BDII_E352-M457) (Homo sapiens, UniProt O60885)
Test: TR-FRET bromodomain binding assay, BRD4 second bromodomain
Conditions: His-tagged BD2, Alexa647-labeled probe 30 nM; Ki calculated from IC50
pKi: −log10 of the molar value.
Classify as follows. Reported pKi greater than or equal to 6: satisfied. Reported pKi below: not satisfied.

Problem: Assess whether reported pKi for `COC/C=C/c1ccc(-c2cc(C(N)=O)c(C)[nH]2)cc1` sits at 6 or higher.
Result: not satisfied

Problem: Now this one: `Cc1[nH]c(-c2ccccc2Cc2ccccc2)cc1C(N)=O`
Result: satisfied

Problem: Now this one: `Cc1[nH]c(-c2cccc(-c3cn[nH]c3)c2)cc1C(N)=O`
Result: not satisfied

---
Problem: Assess whether reported pKi for `CCc1ccc(Oc2ccccc2-c2cc(C(N)=O)c(C)[nH]2)cc1` sits at 6 or higher.
Result: not satisfied

Problem: Now this one: `Cc1[nH]c(-c2ccccc2NCCC2CCN(C(=O)OC(C)(C)C)CC2)cc1C(N)=O`
Result: not satisfied

Problem: Now this one: `Cc1[nH]c(-c2ccccc2Oc2ccc(Cc3ccccc3)cc2)cc1C(N)=O`
Result: not satisfied

###

Listed next: entries and their corresponding pKi.
Biological target: BRD4 (BDI_K57-E168) (Homo sapiens)
Construct: BD1: amino acids K57-E168
Test: TR-FRET bromodomain binding assay, BRD4 first bromodomain
Conditions: His-tagged BD1, Alexa647-labeled probe 100 nM; Ki calculated from IC50
Answer as the number alone; pKi is minus log10 of concentration in mol/L.

Please review the following examples before continuing.
Problem: Given the compound Cc1[nH]c(-c2ccc(-c3ccc4ncccc4c3)cc2)cc1C(N)=O [Example 113] , what is its reported pKi?
Result: 5.33

Problem: Now this one: Cc1cc(CNc2ccccc2-c2cc(C(N)=O)c(C)[nH]2)oc1C [Example 20]
Result: 5.92

Problem: Now this one: Cc1[nH]c(-c2ccccc2NCc2ccc(C#N)cc2)cc1C(N)=O [Example 31]
Result: 5.85

---
Problem: Given the compound Cc1[nH]c(-c2ccccc2N(Cc2cccs2)CC2CCCC2)cc1C(N)=O [Example 60] , what is its reported pKi?
Result: 5.29

###

Biological target: BRD4 (BDII_E352-M457) (Homo sapiens, UniProt O60885)
Assay: TR-FRET bromodomain binding assay, BRD4 second bromodomain
Details: His-tagged BD2, Alexa647-labeled probe 30 nM; Ki calculated from IC50
assay_readout: Ki (µM)
Return type: number; implicit unit µM.

Problem: For BRD4 (BDII_E352-M457) (Homo sapiens, UniProt O60885), provide Ki of Cc1[nH]c(-c2ccc(N)cc2)cc1C(N)=O [Example 8] please.
Result: 3.72

Problem: Now this one: Cc1[nH]c(-c2ccc(-c3cccc(C(=O)N(C)C)c3)cc2)cc1C(N)=O [Example 104]
Result: 2.34

// moving on: another record for Ki
Problem: For BRD4 (BDII_E352-M457) (Homo sapiens, UniProt O60885), provide Ki of Cc1[nH]c(-c2ccccc2Oc2cccc(C#N)c2)cc1C(N)=O [Example 127] please.
Result: 1.04

###

Target: BRD4 (BDI_K57-E168) (Homo sapiens, UniProt O60885)
Construct: BD1: amino acids K57-E168
Test: TR-FRET bromodomain binding assay, BRD4 first bromodomain
Conditions: His-tagged BD1, Alexa647-labeled probe 100 nM; Ki calculated from IC50
Classify: yes (1) when Ki is strictly less than 3 µM; no (0) when Ki is not.

Solved entries:
Problem: Please determine if `Cc1[nH]c(-c2ccc(NS(C)(=O)=O)cc2)cc1C(N)=O` is below 3 µM in terms of Ki.
Result: yes (1)

Problem: Now this one: `Cc1[nH]c(-c2ccccc2Oc2cccc3c2CCCC3)cc1C(N)=O`
Result: yes (1)

Problem: Now this one: `Cc1[nH]c(-c2ccc(-c3cnn(C)c3)cc2)cc1C(N)=O`
Result: no (0)

Problem: Now this one: `Cc1[nH]c(-c2ccccc2NCc2ccccc2Cl)cc1C(N)=O`
Result: yes (1)

Problem: Now this one: `Cc1[nH]c(-c2cccc([N+](=O)[O-])c2)cc1C(N)=O`
Result: yes (1)

Problem: Now this one: `Cc1[nH]c(-c2ccccc2NCc2cccs2)cc1C(N)=O`
Result: yes (1)

---
Problem: Please determine if `Cc1[nH]c(-c2cc(NS(C)(=O)=O)ccc2Oc2ccccc2)cc1C(N)=O` is below 3 µM in terms of Ki.
Result: yes (1)

Problem: Now this one: `Cc1[nH]c(-c2ccccc2NCC2CC2)cc1C(N)=O`
Result: yes (1)

Problem: Now this one: `Cc1ccccc1CNc1ccccc1-c1cc(C(N)=O)c(C)[nH]1`
Result: yes (1)

Problem: Now this one: `Cc1[nH]c(-c2ccccc2Oc2cccc3cnccc23)cc1C(N)=O`
Result: yes (1)

Problem: Now this one: Cc1[nH]c(-c2ccccc2NCC2CCOC2)cc1C(N)=O (stereo not drawn) [Example 17]
Result: yes (1)

Problem: Now this one: `COc1cc(-c2ccc(-c3cc(C(N)=O)c(C)[nH]3)cc2)cc(OC)c1OC`
Result: yes (1)

Problem: Now this one: `Cc1[nH]c(-c2cc(N)ccc2Oc2ccccc2)cc1C(N)=O`
Result: yes (1)

###

Listed next: entries and their corresponding pKi.
Target: BRD4 (BDII_E352-M457) (Homo sapiens)
Assay: TR-FRET bromodomain binding assay, BRD4 second bromodomain
Conditions: His-tagged BD2, Alexa647-labeled probe 30 nM; Ki calculated from IC50
Answer as the number alone; pKi is minus log10 of concentration in mol/L.

Please review the following examples before continuing.
Problem: Given the compound Cc1[nH]c(-c2ccccc2NCC2CCN(C(=O)OC(C)(C)C)C2)cc1C(N)=O (stereo not shown) , what is its reported pKi?
Result: 5.25

Problem: Now this one: `Cc1[nH]c(-c2ccccc2NCc2ccc(F)cc2)cc1C(N)=O`
Result: 5.45

Problem: Now this one: `Cc1[nH]c(-c2ccccc2NC2CCCCC2)cc1C(N)=O`
Result: 5.91

---
Problem: Given the compound `Cc1[nH]c(-c2ccccc2NCc2ccc(C(F)(F)F)cc2)cc1C(N)=O` , what is its reported pKi?
Result: 4.87

Problem: Now this one: `Cc1[nH]c(-c2cccc([N+](=O)[O-])c2)cc1C(N)=O`
Result: 5.14

Problem: Now this one: `Cc1[nH]c(-c2ccccc2NC2CCC2)cc1C(N)=O`
Result: 5.21

Problem: Now this one: `Cc1[nH]c(-c2c(N)cccc2Oc2ccccc2)cc1C(N)=O`
Result: 5.47

Problem: Now this one: `Cc1[nH]c(-c2ccccc2NCc2ccccc2)cc1C(N)=O`
Result: 5.41

Problem: Now this one: `Cc1[nH]c(-c2ccccc2NS(=O)(=O)C2CCCCC2)cc1C(N)=O`
Result: 5.58

Problem: Now this one: `Cc1[nH]c(-c2cccc(-c3ccsc3)c2)cc1C(N)=O`
Result: 5.10

Problem: Now this one: `Cc1[nH]c(-c2ccccc2NS(=O)(=O)Cc2ccc(Cl)cc2)cc1C(N)=O`
Result: 4.88

Problem: Now this one: `Cc1ccc(CNc2ccccc2-c2cc(C(N)=O)c(C)[nH]2)cc1`
Result: 5.36

Problem: Now this one: `Cc1[nH]c(-c2ccccc2NC2CCSCC2)cc1C(N)=O`
Result: 5.59

Problem: Now this one: `COc1ccc(Oc2ccccc2-c2cc(C(N)=O)c(C)[nH]2)cc1`
Result: 5.99

Problem: Now this one: `COc1cc(-c2cc(C(N)=O)c(C)[nH]2)cc(OC)c1OC`
Result: 5.41

Problem: Now this one: `Cc1[nH]c(-c2ccc(-c3ccc(C(=O)N4CCN(C)CC4)cc3)cc2)cc1C(N)=O`
Result: 5.43

Problem: Now this one: `Cc1[nH]c(-c2ccccc2NC2Cc3ccccc3C2)cc1C(N)=O`
Result: 5.63

Problem: Now this one: `Cc1[nH]c(-c2ccccc2NC[C@H]2CC[C@@H](N)CC2)cc1C(N)=O`
Result: 5.21

Problem: Now this one: `COc1ccc(CNc2ccccc2-c2cc(C(N)=O)c(C)[nH]2)cc1`
Result: 5.46

###

Listed next: entries and their corresponding pKi.
Molecular target: BRD4 (BDII_E352-M457) (Homo sapiens, UniProt O60885)
Assay: TR-FRET bromodomain binding assay, BRD4 second bromodomain
Conditions: His-tagged BD2, Alexa647-labeled probe 30 nM; Ki calculated from IC50
Answer as the number alone; pKi is minus log10 of concentration in mol/L.

Please review the following examples before continuing.
Problem: Given the molecule Cc1[nH]c(-c2ccccc2NCC2CCN(C(=O)OC(C)(C)C)CC2)cc1C(N)=O [Example 41] , what is its reported pKi?
Result: 4.78

Problem: Now this one: Cc1[nH]c(-c2ccccc2NCc2ccc(Cl)cc2)cc1C(N)=O [Example 11]
Result: 5.60

Problem: Now this one: Cc1[nH]c(-c2ccccc2NS(=O)(=O)CCC(F)(F)F)cc1C(N)=O [Example 82]
Result: 5.06

Problem: Now this one: Cc1[nH]c(-c2ccccc2NS(=O)(=O)c2ccccc2)cc1C(N)=O [Example 78]
Result: 6.15

Problem: Now this one: Cc1[nH]c(-c2cc(NS(C)(=O)=O)ccc2Oc2ccccc2)cc1C(N)=O [Example 162]
Result: 6.12

Problem: Now this one: CC(=O)Nc1cccc(-c2cc(C(N)=O)c(C)[nH]2)c1 [Example 5]
Result: 5.19

Problem: Now this one: Cc1[nH]c(-c2ccc(-c3ccc4ncccc4c3)cc2)cc1C(N)=O [Example 113]
Result: 5.37

Problem: Now this one: Cc1[nH]c(-c2ccccc2-n2cnc3cc(O)ccc32)cc1C(N)=O [Example 146]
Result: 6.49

// moving on: another record for pKi
Problem: Given the molecule Cc1[nH]c(-c2ccccc2NCC2CCOC2)cc1C(N)=O (single isomer, unassigned) [Example 18] , what is its reported pKi?
Result: 5.63
